tested on: CYP1A; assay: in vitro; details: nude, mouse, pH 7.8
READOUT NAME: inhibition at 10 min, 10 µM

Fill blank: measured inhibition at 10 min, 10 µM of the compound O=c1ccc2ccc(O)cc2o1 is ____.
~47%

====

system: CYP1A; assay: Liver microsomal CYP1A enzymatic activity, inhibition or enhancement; settings: nude, mouse, liver microsomes, pH 7.8, probe 7-ethoxyresorufin
READOUT NAME: activity at 10 min, 1 µM (%)
Hi! Could you send only the number? It should be in %, unit omitted.

Some solved entries appear below for comparison.
[[record]]
compound = "C[C@@H]1O[C@@H](OC[C@H]2O[C@@H](Oc3c(-c4ccc(O)c(O)c4)oc4cc(O)cc(O)c4c3=O)[C@H](O)[C@@H](O)[C@@H]2O)[C@H](O)[C@H](O)[C@H]1O [Rutin]"
scale_unit = "%"
test_value = 117

[[record]]
compound = "C=CC(=C)CCC=C(C)C [Beta-Myrcene]"
scale_unit = "%"
test_value = 82

[[record]]
compound = "CC(Cc1ccc(O)c(O)c1)C(C)Cc1ccc(O)c(O)c1 (stereo not drawn) [Nordihydroguaiaretic acid]"
scale_unit = "%"
test_value = 140

[[record]]
compound = "O=c1ccc2ccc(O)cc2o1 [Umbelliferone]"
scale_unit = "%"
test_value = 120

[[record]]
compound = "COc1ccc(-c2cc(=O)c3c(O)cc(O[C@@H]4O[C@H](CO[C@@H]5O[C@@H](C)[C@H](O)[C@@H](O)[C@H]5O)[C@@H](O)[C@H](O)[C@H]4O)cc3o2)cc1O [Diosmin]"
scale_unit = "%"
test_value = 108


Continue with the compound presented below.
Fill blank: measured activity at 10 min, 1 µM of the compound O=c1c(-c2ccc(O)cc2)coc2cc(O)ccc12 [Daidzein] is ____.
109

====

system: CYP1A; assay: Liver microsomal CYP1A enzymatic activity, inhibition or enhancement; conditions: nude, mouse, liver microsomes, pH 7.8, probe 7-ethoxyresorufin
READOUT NAME: activity at 10 min, 1 µM (%)
Hi! Could you send only the number? It should be in %, unit omitted.

Some solved entries appear below for comparison.
[[record]]
compound = "O=C(O)c1ccc(O)c(O)c1"
test_value = 119

[[record]]
compound = "CCCCCCCCCCCCO"
test_value = 113

[[record]]
compound = "O=c1c(-c2ccc(O)cc2)coc2cc(O)cc(O)c12"
test_value = 109

[[record]]
compound = "COc1ccc(-c2coc3cc(O)ccc3c2=O)cc1"
test_value = 121

[[record]]
compound = "CC12CCC(CC1)C(C)(C)O2"
test_value = 117

[[record]]
compound = "CC(C)[C@@H](C)/C=C/[C@@H](C)[C@H]1CC[C@H]2C3=CC=C4C[C@@H](O)CC[C@]4(C)[C@H]3CC[C@]12C"
test_value = 103

[[record]]
compound = "O=c1c(O)c(-c2ccc(O)cc2)oc2cc(O)cc(O)c12"
test_value = 100

[[record]]
compound = "O=c1c(O)c(-c2ccc(O)c(O)c2)oc2cc(O)cc(O)c12"
test_value = 114


Fill blank: measured activity at 10 min, 1 µM of the compound O=c1c(-c2ccc(O)cc2)coc2cc(O[C@@H]3O[C@H](CO)[C@@H](O)[C@H](O)[C@H]3O)ccc12 is ____.
110

Field entry: CC1(C)CC[C@]2(C(=O)O)CC[C@]3(C)C(=CC[C@@H]4[C@@]5(C)CC[C@H](O)C(C)(C)[C@@H]5CC[C@]43C)[C@@H]2C1
94

Field entry: CC1(C)[C@@H](O[C@H]2O[C@H](C(=O)O)[C@@H](O)[C@H](O)[C@H]2O[C@@H]2O[C@H](C(=O)O)[C@@H](O)[C@H](O)[C@H]2O)CC[C@]2(C)[C@H]3C(=O)C=C4[C@@H]5C[C@@](C)(C(=O)O)CC[C@]5(C)CC[C@@]4(C)[C@]3(C)CC[C@@H]12
118

Field entry: C[C@@]12C[C@@]3(O)O[C@@H](O1)[C@]1(COC(=O)c4ccccc4)[C@H]3C[C@@]12O[C@@H]1O[C@H](CO)[C@@H](O)[C@H](O)[C@H]1O
123

Field entry: CC(=O)OCCCc1ccccc1 [3-Phenyl propyl acetate, 3-phenylpropyl acetate]
151

Field entry: O=c1c(O[C@@H]2O[C@H](CO)[C@@H](O)[C@H](O)[C@H]2O)c(-c2ccc(O)c(O)c2)oc2cc(O)cc(O)c12
99

Field entry: O=c1cc(-c2ccc(O)c(O)c2)oc2cc(O)cc(O)c12
115

Ref: patent US20030166583A1
